Test system: Hepatotoxicity
Experiment: FDA HLAED, alkaline phosphatase increase
Conditions: human
In this section, each of the molecules is paired with its reported Alkaline Phosphatase Increase - Index Value.
Answer field: number only, no words.

// Cc1c(OCC(F)(F)F)ccnc1C[S+]([O-])c1nc2ccccc2[nH]1 (configuration not stated) : Alkaline Phosphatase Increase - Index Value value = 0.5

// CCOC(=O)Nc1ccc2c(c1)N(C(=O)CCN1CCOCC1)c1ccccc1S2 : Alkaline Phosphatase Increase - Index Value value = 3.4

// CC(C)NCC(O)COc1ccc(CC(N)=O)cc1 (configuration not stated) : Alkaline Phosphatase Increase - Index Value value = 0.1

// CC(C)c1c(C(=O)Nc2ccccc2)c(-c2ccccc2)c(-c2ccc(F)cc2)n1CC[C@@H](O)C[C@@H](O)CC(=O)O : Alkaline Phosphatase Increase - Index Value value = 1.7

// CCc1nn(CCCN2CCN(c3cccc(Cl)c3)CC2)c(=O)n1CCOc1ccccc1 : Alkaline Phosphatase Increase - Index Value value = 1.1

New cases:
// O=C(O)Cc1ccccc1Nc1c(Cl)cccc1Cl : Alkaline Phosphatase Increase - Index Value value = 9.2

// CC(O)(CS(=O)(=O)c1ccc(F)cc1)C(=O)Nc1ccc(C#N)c(C(F)(F)F)c1 (configuration not stated) [BICALUTAMIDE] : Alkaline Phosphatase Increase - Index Value value = 8.5

====

Tested on: Hepatotoxicity
Test: FDA HLAED, serum glutamic oxaloacetic transaminase (SGOT) increase
Settings: human
recorded.metric: SGOT Increase - Activity Score

// OCc1cc(C(O)CNCCCCCCOCCCCc2ccccc2)ccc1O (centres undefined) [SALMETEROL] : SGOT Increase - Activity Score value = Inactive

// CCC(=O)O[C@H]1[C@H](O[C@@H]2[C@@H](C)[C@H](O[C@H]3C[C@@](C)(OC)[C@@H](O)[C@H](C)O3)[C@@H](C)C(=O)O[C@H](CC)[C@@](C)(O)[C@H](O)[C@@H](C)C(=O)[C@H](C)C[C@@]2(C)O)O[C@H](C)C[C@@H]1N(C)C [ERYTHROMYCIN PROPIONATE] : SGOT Increase - Activity Score value = Active

// Nc1ccn(C[C@@H](CO)OCP(=O)(O)O)c(=O)n1.O.O [CIDOFOVIR] : SGOT Increase - Activity Score value = Inactive

// CCOC(=O)Nc1ccc2c(c1)N(C(=O)CCN1CCOCC1)c1ccccc1S2 [MORICIZINE] : SGOT Increase - Activity Score value = Active

====

Test system: Hepatotoxicity
Assay: FDA HLAED, serum glutamic oxaloacetic transaminase (SGOT) increase
Conditions: human
recorded.metric: SGOT Increase - Activity Score

// solved cases for SGOT Increase - Activity Score follow
// O=c1[nH]cnc2c1ncn2[C@H]1CC[C@@H](CO)O1 : SGOT Increase - Activity Score value = Active

// CC1=C(/C=C/C(C)=C/C=C/C(C)=C/C(=O)O)C(C)(C)CCC1 : SGOT Increase - Activity Score value = Inactive

// CC(=O)N(CC(O)CO)c1c(I)c(C(=O)NCC(O)CO)c(I)c(C(=O)NCC(O)CO)c1I (stereo not given) [IOHEXOL] : SGOT Increase - Activity Score value = Inactive

// Cc1ccc(C)c(OCCCC(C)(C)C(=O)O)c1 : SGOT Increase - Activity Score value = Inactive

// CC(C)/N=c1\cc2n(-c3ccc(Cl)cc3)c3ccccc3nc-2cc1Nc1ccc(Cl)cc1 : SGOT Increase - Activity Score value = Active

New cases:
// CN(C)C(=N)N=C(N)N : SGOT Increase - Activity Score value = Inactive

// CO/N=C(\C(=O)N[C@@H]1C(=O)N2C(C(=O)OC(C)OC(C)=O)=C(COC(N)=O)CS[C@H]12)c1ccco1 (stereo not given in full) : SGOT Increase - Activity Score value = Inactive

// C[C@@H]1CN(c2c(F)c(N)c3c(=O)c(C(=O)O)cn(C4CC4)c3c2F)C[C@H](C)N1 : SGOT Increase - Activity Score value = Inactive
